procedure-text: Ex vivo biodistribution in H69-tumor bearing mice
stated-conditions: mouse, in vivo, Uptake in Kidneys, 4 h block (co-injected 50 nmol DOTA-TATE), n = 4
experimental-readout: tissue uptake at 4 h (%ID/g)

molecule	experimental-readout	numeric-result
C[C@@H](O)[C@H](NC(=O)[C@@H]1CSSC[C@H](NC(=O)[C@@H](Cc2ccccc2)NC(=O)CN2CCN(CC(=O)O)CCN(CC(=O)O)CCN(CC(=O)O)CC2)C(=O)N[C@@H](Cc2ccc(O)cc2)C(=O)N[C@H](Cc2c[nH]c3ccccc23)C(=O)N[C@@H](CCCCN)C(=O)N[C@@H]([C@@H](C)O)C(=O)N1)C(=O)O [[^111In]In-DOTA-TATE, metal not drawn, reference compound]	tissue uptake at 4 h	7.75
